Recorded TGI for the following compounds
Tested on: EKVX NSCLC
Experiment: NCI tumour cell line growth inhibition, 48 h
// note: answer is a bare numeric in µM

1) Cc1ccc(Cl)cc1Nc1nc(C(F)(F)F)ccc1C(=O)Oc1ccc(Cl)cc1; 22.8
2) CN(C)/[N+]([O-])=N/Oc1cc(Nc2ccc(C(=O)O)cc2)c([N+](=O)[O-])cc1[N+](=O)[O-]; 46.8
3) COc1ccc(N=NN2CCCC2)cc1; 58.8
4) O=C(/C=C/c1ccccc1F)C(c1ccccc1)c1ccccc1; 24.4

Request: Param readout = TGI; param system = EKVX NSCLC; param query = CCOC(=O)c1c(OCC)[nH]c(=O)c(C(c2ccc(F)cc2)c2c(O)c(C(=O)OCC)c(OCC)[nH]c2=O)c1O ; response: value
Result: 33.2

====

System: NCI-H23 lung
Experiment: NCI tumour cell line growth inhibition, 48 h
Assay Readout: TGI

1. NC12c3c4cccc3Oc3cccc(c31)Oc1cccc(c12)O4; > 50 µM
2. c1ccc(COc2nc3ccc(C45CC6CC(CC(C6)C4)C5)cc3[nH]2)cc1; > 56.6 µM
3. C[C@H](NC(=O)OC1C2C=CC(O)C1CC2)c1ccccc1 (some centres undefined); > 100 µM

Request: Could you share which TGI value was measured for COc1cc2c(cc1-c1c(C)noc1C)ncc1nc(C3CCCCC3)n(C3CCC(OC(F)F)CC3)c12 (centres undefined) ?
Result: > 100 µM

====

System: MALME-3M melanoma
Experiment: NCI tumour cell line growth inhibition, 48 h
Recorded TGI for the following compounds

Request: Could you share which TGI value was measured for Cc1cc(Cl)ccc1N1C(=O)C(=O)C(c2nc3ccccc3s2)C(=O)C1=O ?
Result: > 100 µM

Request: // same read-out, input: N#Cc1c2ccccc2c2nnc3cc(Cl)c(Cl)cc3n12
Result: > 100 µM

Request: // same read-out, input: Cc1nn(-c2ccccc2)c(C)c1/C=N/NC(=O)c1sc(=S)n(-c2ccc(Cl)cc2)c1N
Result: > 100 µM

====

Tested on: RXF 393 renal
Test: NCI tumour cell line growth inhibition, 48 h
Recorded TGI for the following compounds

Record excerpt, results attached:
1) CCCCCCCCCCCCC(Br)C(=O)SCCNC(=O)CCNC(=O)[C@@H](O)C(C)(C)COP(=O)(O)OP(=O)(O)OCC1OC(n2cnc3c(N)ncnc32)C(O)C1OP(=O)(O)O (stereo not given in full); > 56.5 µM
2) CCCCCCc1cc(C=O)sc1-c1ccc(-c2sc(-c3ccc(-c4ccc(-c5cc(CCCCCC)c(-c6ccc(-c7sc(C=O)cc7CCCCCC)s6)s5)s4)s3)cc2CCCCCC)s1; > 100 µM
3) Cc1ccc(S(=O)(=O)N2CCCCC2CCO)cc1 (stereo not given); > 100 µM
4) c1ccc(/C(=N/Nc2cnccn2)c2ncccn2)cc1; > 100 µM
5) CCOc1ccc(N=NC2C(=O)N(C(=O)CC(=O)Nc3ccc(Cl)cc3)N=C2C)cc1 (stereo not given); > 100 µM

Request: Could you share which TGI value was measured for CCOC1NC(=O)Oc2ccccc21 (stereo not given) ?
Result: > 100 µM

Request: // same read-out, input: CC(=O)OCc1ccc(-c2nc(C#N)c(N)o2)o1
Result: > 10 µM

====

System: RPMI-8226 leukemia
Assay: NCI tumour cell line growth inhibition, 48 h
Recorded TGI for the following compounds

Record excerpt, results attached:
1) CC1(C(O)c2ccccc2)CN(C(C)(C)C)C(=O)/C1=C\Sc1ccccc1 (stereo unspecified); > 100 µM
2) CC(=O)OCC1OC(n2c(-c3ccccc3)c(N=Nc3ccc(Cl)cc3)c(C)c(C#N)c2=S)C(OC(C)=O)C(OC(C)=O)C1OC(C)=O (stereo unspecified); > 100 µM
3) Cc1c2c(nn1-c1ccc(S/N=C3\SCC(=O)CN3c3ccccc3)cc1)-c1ccccc1CC2; > 50 µM
4) COc1ccccc1NC(=O)C1=C(C)NC(C)=C(C(=O)Nc2ccccc2OC)C1c1ccc(C(C)C)cc1; > 100 µM
5) CC(O)CN(CCN(CC(C)O)CC(C)O)CC(C)O.O=[N+]([O-])O.[Cu+2] (stereo unspecified); > 100 µM

Kindly consider the entry below.
Request: Could you share which TGI value was measured for COc1ccc(NS(=O)C2CCCCC2)cc1 (stereo unspecified) ?
Result: > 100 µM
